- Test system: Acinetobacter baumannii
- assay-name: Antibacterial activity against Acinetobacter baumannii 125 assessed as growth inhibition at 1 mg/mL after 24 hrs by agar-disk diffusion technique
- Format: functional, organism-based
Calls of active or inactive are those of the source. The rule behind the calls is not given here.
Return exactly one item of TRUE (active), FALSE (inactive)

Worked examples, 3 compounds total:
>>> group_label("Cc1ccc(/C=C/C(N)=S)cc1")
"FALSE"
>>> group_label("NC(S)(/C=C/c1ccc(Cl)cc1)NNC(=O)c1ccncc1 (stereo unspecified)")
"TRUE"
>>> group_label("NC(=S)/C=C/c1ccc(Cl)cc1")
"FALSE"

Request: Name the outcome recorded for "CCOc1ccc(/C=C/C(N)=S)cc1" in the assay.
Result: FALSE

Request: Would you mind telling me which call this test gave NNC(=O)c1ccncc1 [ISONIAZID] ?
Result: FALSE

Request: Write down the call the test reported for this compound. Item: "COc1ccc(/C=C/C(N)=S)cc1"
Result: FALSE

* * *

- Tested on: Pseudomonas aeruginosa
- assay-name: Antibacterial activity against Pseudomonas aeruginosa 165 assessed as growth inhibition at 1 mg/mL after 24 hrs by agar-disk diffusion technique
- Assay type: functional, organism-based
Active and inactive are the calls of the source. The rule behind the calls is not given here.
assay-metric: growth inhibition (GI)

These solved cases illustrate the format of a correct answer.
>>> result("Cc1ccc(/C=C/C(N)=S)cc1")
"inactive"
>>> result("NNC(=O)c1ccncc1")
"inactive"
>>> result("NC(=S)/C=C/c1ccccc1")
"Active"
>>> result("COc1ccc(/C=C/C(N)(S)NNC(=O)c2ccncc2)cc1 (configuration not stated)")
"Active"
>>> result("Cc1ccc(/C=C/C(N)(S)NNC(=O)c2ccncc2)cc1 (configuration not stated)")
"Active"

Request: Please give the measured growth inhibition (GI) for this compound: NC(S)(/C=C/c1ccc(Cl)cc1)NNC(=O)c1ccncc1 (configuration not stated)
Result: Active

Request: GET /values?readout=growth inhibition (GI)&item= "COc1ccc(/C=C/C(N)=S)cc1"
Result: inactive

* * *

- Test system: HCT-8
- assay-name: Induction of apoptosis in human HCT8 cells assessed as early apoptotic cells at 50 ug/mL after 24 hrs by Annexin V-FITC and propidium iodide staining-based flow cytometric analysis (reference value: 1.57%)
- Type: cell-based
- test-context: hct-8, 24 h
assay-metric: Activity
Note: a bare number is incomplete; add the unit.

Worked set:
>>> result("Cc1ccc(/C=C/C(N)=S)cc1")
"7.11%"
>>> result("CCOc1ccc(/C=C/C(N)=S)cc1")
"1.56%"
>>> result("COc1ccc(/C=C/C(N)=S)cc1")
"3.09%"
>>> result("CCOc1ccc(/C=C/C(N)(S)NNC(=O)c2ccncc2)cc1 (stereo not given)")
"5.81%"
>>> result("NC(=S)/C=C/c1ccccc1")
"12.9%"

Request: Short answer please: Activity, HCT-8, entry "NNC(=O)c1ccncc1"
Result: 1.95%

Request: // map COc1ccc(/C=C/C(N)(S)NNC(=O)c2ccncc2)cc1 (stereo not given) to recorded Activity (system: HCT-8)
Result: 1.29%

Request: # value lookup — system HCT-8, readout Activity, item NC(S)(/C=C/c1ccccc1)NNC(=O)c1ccncc1 (stereo not given)
Result: 0.95%

Request: GET /values?readout=Activity&system=HCT-8&item= "NC(=S)/C=C/c1ccc(Cl)cc1"
Result: 22.7%

Request: # value lookup — system HCT-8, readout Activity, item Cc1ccc(/C=C/C(N)(S)NNC(=O)c2ccncc2)cc1 (stereo not given)
Result: 1.16%
